Molecular target: Lck (Homo sapiens, UniProt P06239)
Construct: Kinases are expressed as either kinase domains or full length constructs; made in house
Sequence (P06239 whole entry, species assumed, the tested form may be a part): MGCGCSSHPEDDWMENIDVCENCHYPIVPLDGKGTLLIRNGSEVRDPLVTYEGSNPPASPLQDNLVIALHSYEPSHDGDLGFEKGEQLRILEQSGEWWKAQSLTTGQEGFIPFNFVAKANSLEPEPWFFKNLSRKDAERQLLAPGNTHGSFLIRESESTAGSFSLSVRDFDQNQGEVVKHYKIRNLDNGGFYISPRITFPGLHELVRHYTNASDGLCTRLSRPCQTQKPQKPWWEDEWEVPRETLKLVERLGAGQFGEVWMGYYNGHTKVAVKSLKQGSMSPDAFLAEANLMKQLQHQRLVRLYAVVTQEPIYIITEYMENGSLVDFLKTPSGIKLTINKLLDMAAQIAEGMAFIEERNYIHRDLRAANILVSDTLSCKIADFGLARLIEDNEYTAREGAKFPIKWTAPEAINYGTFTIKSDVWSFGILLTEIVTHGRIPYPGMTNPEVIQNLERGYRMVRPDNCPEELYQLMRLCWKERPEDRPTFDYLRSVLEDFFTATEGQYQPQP
Experiment: Kinase inhibition assay (33P transfer), Lck
Type: biochemical
Conditions: Table 3; read-out: Lck-1
Form field: IC50 (one value per entry).

Compound: COc1ccc2c(c1)c(CCNC(C)=O)cn2-c1ncnc(Nc2cc(OC)c(OC)c(OC)c2)n1 [Compound 339]
Measurement target: Lck (Homo sapiens, UniProt P06239)
IC50: > 9.14 µM
--
Compound: Cc1cccc(Nc2ncnc(Nc3ccc4[nH]ccc4c3)n2)c1 [Compound 110]
Measurement target: Lck (Homo sapiens, UniProt P06239)
IC50: 1.26 to 7.59 µM
--
Compound: O=c1[nH]c2ccccc2n1-c1ncnc(Nc2cccc(-c3cnco3)c2)n1 [Compound 418]
Measurement target: Lck (Homo sapiens, UniProt P06239)
IC50: 1.08 to 6.46 µM
--
Compound: CCOC(=O)Cc1cn(-c2ncnc(Nc3cc(OC)c(OC)c(OC)c3)n2)c2ccccc12 [Compound 411]
Measurement target: Lck (Homo sapiens, UniProt P06239)
IC50: 7.55 to 9.71 µM
--
Compound: COc1cc(Nc2ncnc(Nc3cc(OC)c(OC)c(OC)c3)n2)cc(OC)n1 [Compound 253]
Measurement target: Lck (Homo sapiens, UniProt P06239)
IC50: 8.45 to 10.9 µM

Prompt: For ClCc1ccccc1Nc1ncnc(-n2cccc2)n1 [Compound 278] , what is its reported IC50?
Response: > 15.7 µM

Prompt: For COc1cc(Nc2ncnc(Nc3ccncc3)n2)cc(OC)c1OC [Compound 39] , what is its reported IC50?
Response: > 12.7 µM

Prompt: For COc1cc(Nc2ncnc(Nc3ccccc3)n2)cc(OC)c1OC [Compound 91] , what is its reported IC50?
Response: 1.13 to 6.79 µM

Prompt: For COc1cccc(NC(=O)Nc2ncnc(Nc3cc(OC)c(OC)c(OC)c3)n2)c1 [Compound 21] , what is its reported IC50?
Response: 0.938 to 5.63 µM

Prompt: For O=c1[nH]c2ccccc2n1-c1ncnc(Nc2ccc(-c3cnco3)cc2)n1 [Compound 379] , what is its reported IC50?
Response: > 12.1 µM

Prompt: For COc1cc(Nc2ncnc(Nc3ccc(NC(=O)OC(C)(C)C)cc3)n2)cc(OC)c1OC [Compound 69] , what is its reported IC50?
Response: 0.854 to 5.12 µM

###

Target: Itk (Homo sapiens)
Construct: Kinases are expressed as either kinase domains or full length constructs; made in house
Sequence (Q08881 whole entry, species assumed, the tested form may be a part): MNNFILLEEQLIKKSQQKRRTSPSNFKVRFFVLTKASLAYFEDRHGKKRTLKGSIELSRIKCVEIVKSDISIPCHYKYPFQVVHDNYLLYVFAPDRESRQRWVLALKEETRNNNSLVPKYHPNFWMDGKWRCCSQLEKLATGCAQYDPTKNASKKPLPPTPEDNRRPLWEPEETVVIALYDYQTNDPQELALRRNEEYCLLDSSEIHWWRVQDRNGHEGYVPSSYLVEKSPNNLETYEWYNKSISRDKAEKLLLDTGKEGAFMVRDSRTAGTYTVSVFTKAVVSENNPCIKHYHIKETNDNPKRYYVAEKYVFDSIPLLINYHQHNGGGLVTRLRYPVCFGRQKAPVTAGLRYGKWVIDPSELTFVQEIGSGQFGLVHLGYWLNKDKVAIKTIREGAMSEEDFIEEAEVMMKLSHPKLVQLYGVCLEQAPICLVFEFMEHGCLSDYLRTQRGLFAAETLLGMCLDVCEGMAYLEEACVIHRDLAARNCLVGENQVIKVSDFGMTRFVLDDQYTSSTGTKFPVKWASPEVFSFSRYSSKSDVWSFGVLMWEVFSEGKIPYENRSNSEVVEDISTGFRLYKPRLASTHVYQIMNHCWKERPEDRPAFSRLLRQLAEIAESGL
Test: Kinase inhibition assay (33P transfer), Itk
Type: biochemical
Conditions: Table 3, class symbols; read-out: Itk-1
pIC50: −log10 of the molar value.
Metric name: pIC50

# count of solved cases: 3
Compound: Clc1cc(Nc2ncnc(Nc3ccc4c(cnn4Cc4ccccc4)c3)n2)cc(Cl)c1Cl [Compound 872]
pIC50: 5.32 to 6.09
//
Compound: CN(c1ccc2c(cnn2Cc2ccccc2)c1)c1ncnc(Nc2cccc(Cc3nnn[nH]3)c2)n1 [Compound 671]
pIC50: 5.04 to 5.15
//
Compound: COC(=O)c1ccc(-c2cc(Nc3ncnc(Nc4cc(F)cc(F)c4)n3)[nH]n2)cc1 [Compound 810]
pIC50: < 4.97

Prompt: For c1ccc(-c2cc(Nc3ncnc(Nc4ccc5[nH]ncc5c4)n3)[nH]n2)cc1 [Compound 1013] , what is its reported pIC50?
Response: 5.19 to 5.97

Prompt: For COC(=O)c1ccc(-c2cc(Nc3ncnc(NCc4cccnc4)n3)[nH]n2)cc1 [Compound 809] , what is its reported pIC50?
Response: 5.22 to 6.00

Prompt: For Cc1ccc(-c2cc(Nc3ncnc(Nc4cc(C)ccc4C)n3)[nH]n2)cc1 [Compound 1125] , what is its reported pIC50?
Response: > 5.97
